Test system: zebrafish embryos
test.details: Heart rates of treated zebrafish embryos
Assay type: in vivo, zebrafish (Danio rerio)
cond: 2 μM, zebrafish embryos; control 21 per 10 s
measurement.kind: Heart Rate

- chemical.string: "CC(C)=CCC/C(C)=C/Cc1c(O)c(CC=C(C)C)c2c(c1O)C(=O)C1=C[C@@H]3C[C@H]4C(C)(C)O[C@@](C/C=C(/C)C(=O)O)(C3=O)[C@@]14O2"
  test.value: "18 per 10 s"
- chemical.string: "CC(C)=CCC/C(C)=C/Cc1c(O)c(CC=C(C)C)c2c(c1O)C(=O)C1=C[C@@H]3C[C@H]4C(C)(C)O[C@@](CC=C(C)C)(C3=O)[C@@]14O2"
  test.value: "21 per 10 s"
- chemical.string: "CC(C)=CCc1c2c(c(O)c3c1O[C@]14C(=C[C@@H]5C[C@H]1C(C)(C)O[C@@]4(C/C=C(/C)C(=O)O)C5=O)C3=O)C=CC(C)(C)O2"
  test.value: "8 per 10 s"
- chemical.string: "CC(C)=CCC/C(C)=C/Cc1c(O)c(CC=C(C)C)c2c(c1O)C(=O)C1=C[C@@H]3C[C@H]4C(C)(C)O[C@@](C/C=C(\\C)C(=O)O)(C3=O)[C@@]14O2"
  test.value: "8 per 10 s"
- chemical.string: "CC(C)=CCc1c2c(c(O)c3c1O[C@]14C(=C[C@@H]5C[C@H]1C(C)(C)O[C@@]4(CC=C(C)C)C5=O)C3=O)C=CC(C)(C)O2"
  test.value: "17 per 10 s"

====

Entries and their IC50 values follow.
Tested on: HepG-2
test.details: MTT cytotoxicity assay, HepG-2
Type: cell-based
cond: Homo sapiens, HepG2; MTT assay; 50% inhibition of cell growth; read-out: IC50 HepG-2

- compound: "CC(C)=CCc1c2c(c(O)c3c1O[C@]14C(=C[C@@H]5C[C@H]1C(C)(C)O[C@@]4(C/C=C(/C)C=O)C5=O)C3=O)C=CC(C)(C)O2 [Xanthone 5, morellin isomers]"
  u: "µM"
  IC50: 5.97
- compound: "CC(C)=CCC/C(C)=C/Cc1c(O)c(CC=C(C)C)c2c(c1O)C(=O)C1=C[C@@H]3C[C@H]4C(C)(C)O[C@@](C/C=C(/C)C=O)(C3=O)[C@@]14O2 [Xanthone 7, gambogenin]"
  u: "µM"
  IC50: 6.51
- compound: "CC(C)=CCC[C@]1(C)C=Cc2c(O)c3c(c(CC=C(C)C)c2O1)O[C@]12C(=C[C@@H]4C[C@H]1C(C)(C)O[C@@]2(C/C=C(/C)C(=O)O)C4=O)C3=O [Xanthone 1, gambogic acid]"
  u: "µM"
  IC50: 0.78
- compound: "CC(C)=CCC/C(C)=C/Cc1c(O)c(CC=C(C)C)c2c(c1O)C(=O)C1=C[C@@H]3C[C@H]4C(C)(C)O[C@@](C/C=C(\\C)C=O)(C3=O)[C@@]14O2 [Xanthone 6, isogambogenin]"
  u: "µM"
  IC50: 2.44
- compound: "CC(C)=CCC/C(C)=C/Cc1c(O)c2c(c3c1O[C@@H](C(C)(C)O)C3)O[C@]13C(=C[C@@H]4C[C@H]1C(C)(C)O[C@@]3(C/C=C(/C)C(=O)O)C4=O)C2=O [Xanthone 4, gambogenific acid]"
  u: "µM"
  IC50: 10.2
- compound: "CC(C)=CCCC1(C)C=Cc2c(O)c3c(c(CC=C(C)C)c2O1)O[C@]12C(=C[C@@H]4C[C@H]1C(C)(C)O[C@@]2(C/C=C(\\C)C(=O)O)C4=O)C3=O (some centres unmarked) [Xanthone 8, isogambogic acid]"
  u: "µM"
  IC50: 6.37
- compound: "CC(C)=CCC/C(C)=C/Cc1c(O)c(CC=C(C)C)c2c(c1O)C(=O)C1=C[C@@H]3C[C@H]4C(C)(C)O[C@@](C/C=C(/C)C(=O)O)(C3=O)[C@@]14O2 [Xanthone 2, gambogenic acid]"
  u: "µM"
  IC50: 6.35
- compound: "CC(C)=CCC/C(C)=C/Cc1c(O)c(CC=C(C)C)c2c(c1O)C(=O)C1=C[C@@H]3C[C@H]4C(C)(C)O[C@@](C/C=C(\\C)C(=O)O)(C3=O)[C@@]14O2 [Xanthone 9, isogambogenic acid]"
  u: "µM"
  IC50: 6.35
